- System: human mPGES-1 (Homo sapiens (Human))
- Sequence (O14684 whole entry): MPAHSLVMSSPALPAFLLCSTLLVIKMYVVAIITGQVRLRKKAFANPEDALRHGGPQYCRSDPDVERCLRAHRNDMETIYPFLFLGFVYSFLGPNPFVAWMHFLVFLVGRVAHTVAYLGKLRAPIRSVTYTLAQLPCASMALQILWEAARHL
pIC50: −log10 of the molar value. Structures can show the parent of a compound that is named as a salt.
Mark class 0 for pIC50 values under 8, and class 1 for everything at or above.

Cc1nc2c(C(=O)NC3CCCCC3)cc(NC(=O)c3ccccc3C(F)(F)F)cc2[nH]1 [Example 13, hydrochloride]
class 0
Cc1c(Cl)cccc1NC(=O)c1cc(NC(=O)c2ccccc2C(F)(F)F)cc2[nH]c([C@@H]3CCCN3)nc12 [Example 71, dihydrochloride]
class 0
Cc1c(Cl)cccc1NC(=O)c1cc(NC(=O)c2ccccc2C(F)(F)F)cc2[nH]cnc12
class 1

Please check the record CCCC(C)(C)c1nc2c(C(=O)Nc3cccc(Cl)c3C)cc(NC(=O)c3ccccc3C(F)(F)F)cc2[nH]1 [Example 84, hydrochloride] and state if its pIC50 is at or above 8. class 1

Hi team, for COCc1nc2c(C(=O)Nc3cccc(Cl)c3C)cc(NC(=O)c3ccncc3Cl)cc2[nH]1 [Example 245, hydrochloride] , is the recorded pIC50 at or above 8? class 0

I'd appreciate it if you could say whether Cc1c(Cl)cccc1NC(=O)c1cc(NC(=O)c2ccccc2C(F)(F)F)cc2[nH]c(CC(=O)N3CCCC3)nc12 [Example 132, hydrochloride] has pIC50 at least equal to 8. class 1

Say whether Cc1ccc(NC(=O)c2cc(NC(=O)c3cc(Cl)ccc3Cl)cc3[nH]c(C4(C)CC4)nc23)cc1Cl [Example 211, hydrochloride] shows pIC50 of 8 or more. class 1

Reported pIC50 at or above 8? COCc1nc2c(C(=O)Nc3cccc(Cl)c3C)cc(NC(=O)c3ncccc3F)cc2[nH]1 [Example 244, hydrochloride] class 0

Reported pIC50 at or above 8? Cc1nc2c(C(=O)Nc3cccc(Cl)c3C)cc(NC(=O)c3ccccc3C(F)(F)F)cc2[nH]1 [Example 14, hydrochloride] class 1

Please check the record COCc1nc2c(C(=O)NCC(C)(C)C)cc(NC(=O)c3ccccc3C(F)(F)F)cc2[nH]1 [Example 226, hydrochloride] and state if its pIC50 is at or above 8. class 0

Determine whether this molecule has pIC50 no lower than 8: CCn1cnc2c(C(=O)Nc3cccc(Cl)c3C)cc(NC(=O)c3ccccc3C(F)(F)F)cc21 class 0

Dear colleague, could you confirm whether COCc1nc2c(C(=O)NCC3CCCCCC3)cc(NC(=O)c3ccccc3C(F)(F)F)cc2[nH]1 [Example 231, hydrochloride] has pIC50 at or above 8? class 1

Just for reference, patent US9216968B2 is where these values come from.
